Parameter 'readout' = MIC; parameter 'system' = A. naeslundi.
The figure you give is taken to be in µg/mL; do not add the unit.

Provide one value: measured MIC of CCCCCCCCCCCCCC[N+](C)(C)CCCCCCCCCCC(=O)[O-]
0.39

Provide one value: measured MIC of CCCCCCCCCCCCCC[N+](C)(C)CCCCCCCCCCC(=O)O.[Br-] [C14 H29 [RN^+ (CH3)2 (CH2)10 COOH] Pr^-]
0.39

Provide one value: measured MIC of CCCCCCCCCCCCCCCC[N+](C)(C)CCCCCCCCCCC(=O)O.[Br-] [C16 H33 [RN^+ (CH3)2 (CH2)10 COOH] Pr^-]
0.78

Provide one value: measured MIC of CCCCCCCCCCCCCCCC[N+](C)(C)CCCCCCCCCCC(=O)[O-]
0.78

Provide one value: measured MIC of CCCCCCCCCCCC[N+](C)(C)CCCCCCCCCCC(=O)O [C12 H25 [RN^+ (CH3)2 (CH2)10 COOH] Pr^-]
12.5

* * *

Parameter 'readout' = MIC; parameter 'system' = A. niger.
The figure you give is taken to be in µg/mL; do not add the unit.

Provide one value: measured MIC of CCCCCCCCCCCCCCCC[N+](C)(C)CCCCCCCCCCC(=O)[O-]
100

Provide one value: measured MIC of CCCCCCCCCCCCCC[N+](C)(C)CCCCCCCCCCC(=O)O.[Br-] [C14 H29 [RN^+ (CH3)2 (CH2)10 COOH] Pr^-]
25

Provide one value: measured MIC of CCCCCCCCCCCCCC[N+](C)(C)CCCCCCCCCCC(=O)[O-]
50

Provide one value: measured MIC of CCCCCCCCCCCC[N+](C)(C)CCCCCCCCCCC(=O)O [C12 H25 [RN^+ (CH3)2 (CH2)10 COOH] Pr^-]
50

Provide one value: measured MIC of CCCCCCCCCCCCCCCC[N+](C)(C)CCCCCCCCCCC(=O)O.[Br-] [C16 H33 [RN^+ (CH3)2 (CH2)10 COOH] Pr^-]
50
